Where do these numbers come from? They come from the supplement of paper PMC12042874.

# Assay protocol: amyloid nucleation score (Sup35N fusion, yeast selection) (log enrichment); library NNK1; higher = more nucleation; inactive = no reads after selection;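 also: zero at mode of non-aggregating sequences after 7 days selection at 30°C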
Decision: amyloid nucleation score >= 0.4 yields MET, all other cases yield NOT MET.

Substance: MRWHINATLNGRLGAGLILV
Assigned class: NOT MET
//
Substance: VITVRLFILW
Assigned class: NOT MET
//
Substance: VRTSVCCTRALAMLRSLWVT
Assigned class: NOT MET
//
Substance: SRPDTQPEEAQ
Assigned class: NOT MET
//
Substance: GDYSCPLGNIINHDPMLFRW
Assigned class: NOT MET
//
Substance: LVTFPKLSEVIHGKADVMHS
Assigned class: NOT MET
//
Substance: CLARGSKYWNRQNKVNFPYI
Assigned class: MET
//
Substance: ATAHCWLRQESGEFGDLWIP
Assigned class: NOT MET
//
Substance: EDALRIFRKETDPDL
Assigned class: MET
//
Substance: GKHLTRNAWGRLSLVTDCVR
Assigned class: MET
//
Substance: DWMNYVWTVTRIGSYSMVGI
Assigned class: MET
//
Substance: VVQFKMWACQTFFMDLRNTM
Assigned class: MET
//
Substance: FFFALFFQRSTTRGWLSGQL
Assigned class: MET
//
Substance: LFRNANAMDYVVRCWCSRGI
Assigned class: MET
//
Substance: ILSGRRDNSAERGRGGLWVM
Assigned class: NOT MET
//
Substance: KSLMRTTMSCQSDYEDQKDV
Assigned class: MET
//
Substance: SYRSVG
Assigned class: NOT MET
//
Substance: FEKTIHFV
Assigned class: MET
//
Substance: MRLLIGEKIMWSLRCCSDKG
Assigned class: NOT MET
//
Substance: RFWINIPKYSTIL
Assigned class: NOT MET
//
Substance: GISFWSLGC
Assigned class: MET
//
Substance: VLTCKE
Assigned class: NOT MET
//
Substance: MVKYYNTQHDGVSFIEIRLL
Assigned class: MET
//
Substance: SIFSSNCNL
Assigned class: NOT MET
//
Substance: FSGLDYNVYVNLVPYFLCIN
Assigned class: MET
//
Substance: DPSSLNSGPCLHMAGGCGNQ
Assigned class: NOT MET
//
Substance: VLGERYCPSNVLWLHLCGGE
Assigned class: NOT MET
//
Substance: NFRAWS
Assigned class: NOT MET
//
Substance: TRNFKQK
Assigned class: NOT MET
//
Substance: WLLWLTSSYKHQWMT
Assigned class: NOT MET

* * *

# Assay protocol: amyloid nucleation score (Sup35N fusion, yeast selection) (log enrichment); library NNK1; higher = more nucleation; inactive = no reads after selection
Mark not met for amyloid nucleation score values under 0.5, and met for everything at or above.

Substance: IRFKRFGADAHGNKYNSRWI
Assigned class: met
//
Substance: CECHPFHPRVLVYGRYRFNP
Assigned class: not met
//
Substance: FEDGTCALR
Assigned class: not met
//
Substance: RIMLFFCCSSKVFDFPVLLM
Assigned class: met
//
Substance: WQRNDQWMVVQVITVSV
Assigned class: not met
//
Substance: VNYFARSGASKICML
Assigned class: not met
//
Substance: VKYTYDS
Assigned class: not met
//
Substance: YCANQRNSVPMGRMEPHSSS
Assigned class: not met
//
Substance: TVIRESIPKFWFYTLGMLKV
Assigned class: not met
//
Substance: YYFILYGSVNQHRTSIFRAR
Assigned class: met
//
Substance: YDTFSPRSWS
Assigned class: met
//
Substance: VGRFLSYGRWLA
Assigned class: not met
//
Substance: RILTDLRKICADCNRILPFW
Assigned class: not met
//
Substance: ADTCPFCDHWTQSSNRWQEL
Assigned class: met
//
Substance: NTTYQTYR
Assigned class: met
//
Substance: SLVVVGCWLAANQESK
Assigned class: met
//
Substance: TWQNRTSLIEVTSYMFHGWV
Assigned class: not met
//
Substance: LQRGQVLALADSRFCVRCSR
Assigned class: met
//
Substance: RLEYCSRRWLANTLSGGRSL
Assigned class: not met
//
Substance: KELCGLRGYTFYEQF
Assigned class: met
//
Substance: GSTRYHAKMDPGWVRFT
Assigned class: not met
//
Substance: CDPGVKYSVSKAYRGWEYAL
Assigned class: not met
//
Substance: NACGQVLCWYL
Assigned class: met
//
Substance: YVQLLMVHNAMYRSAGIFSY
Assigned class: met
//
Substance: YIASMVCDIRKPHPCLVYVL
Assigned class: not met
//
Substance: GGMIAIKHKFIYYDLELWGY
Assigned class: not met
//
Substance: KAPCDFSGFCRCRVTGPSHC
Assigned class: not met
//
Substance: EMYCVYSFRSYFVYGLSLGS
Assigned class: not met
//
Substance: LFLMKANMELVNLYFRSEVR
Assigned class: not met
//
Substance: DSCLEGM
Assigned class: met
//
Substance: LRAVTWLRYAYQGLFDVDV
Assigned class: not met
